test system: MDA-MB-435; assay: NCI tumour cell line growth inhibition, 48 h
# key: entry, value: TGI

So the reported TGI for O=C(N[C@H](c1ccc(Cl)c(Cl)c1)C1CNC1)c1ccc2cnccc2c1 , on MDA-MB-435, turned out to be 11.8 µM

The compound Nc1nc(-c2ccccc2)c(-c2ccccc2)c(-c2nc(N)nc(-c3ccccc3)c2-c2ccccc2)n1 , tested on MDA-MB-435, showed TGI of > 100 µM

---

tested on: HOP-92 NSCLC; experiment: NCI tumour cell line growth inhibition, 48 h
TGI for assorted molecules

O=[N+]([O-])c1cccc(C2SCc3nc4ccccc4n32)c1 (stereo unspecified); > 100 µM

Input O=C1C=C2S[C@H]3C[C@]2(C=C1Br)c1c(c(O)c2c4c1=NCCC=4C=N2)N3 . Output TGI: 2.28 µM

Just so you know, measured TGI for Cn1cc(-c2csc(-c3c[nH]c4ncccc34)n2)c2cc(Br)cnc21 came out at > 100 µM

---

Parameter 'readout' = GI50; parameter 'system' = SK-OV-3 ovarian.

Worked examples follow.
COc1cc(CNC(=O)/C=C/C=C/c2ccc3c(c2)OCO3)ccc1OCc1cn(-c2ccc(Cl)c(Cl)c2)nn1; 2.54 µM
O=S(=O)(NCCNc1nccc(-c2c(-c3cccc(O)c3)nc3sccn23)n1)c1ccc(F)cc1; 5.37 µM
COc1cc2c(cc1OCCCCNC(=O)c1cc3ccccc3[nH]1)N=CC1CCCN1C2=O (stereo not given); 29.9 µM
O=C1NC(=NCc2cccs2)SC1Cc1ccc2ncccc2c1 (stereo not given); > 25 µM

Per the reported SK-OV-3 ovarian data, CN(C)CC(C(=O)c1ccccc1)c1ccccc1 (stereo not given) has GI50 of 2.62 µM

---

tested on: HL-60(TB) leukemia
# output must be one of 1 (active), -1 (inactive)

CCCCCCN(CCCCCC)CCCNc1nccc2ccccc12; -1
COc1cc(/C=C/C(=O)C(=Cc2ccc(F)c(F)c2)C(=O)/C=C/c2ccc(O)c(OC)c2)ccc1O; -1
Fc1ccc(-c2nc(-c3nc4ccc(Cl)cc4[nH]3)cc3c2[nH]c2ccccc23)cc1; -1
O=C1NC(=NCC(CO)c2ccccc2)S/C1=C\c1ccc2ncccc2c1 (stereo unspecified); -1
Nc1nc(N)c2cc(CNc3ccc(Cl)c(Cl)c3)ccc2n1; 1

Incoming: What was the test verdict on N#Cc1ccc(Oc2nccc(-c3c(-c4ccc(F)cc4)ncn3C3CCNCC3)n2)cc1 ?
Outgoing: -1

Incoming: Name the outcome recorded for O=C(Oc1cccnc1)c1ccccc1Nc1ccnc(C(F)(F)F)c1 in the assay.
Outgoing: -1

Incoming: Can you look up the reported call for Clc1ccc(-c2nc3c(-c4ccc(Cl)cc4)nc(-c4ccccc4)cn3c2-c2ccc(Cl)cc2)cc1 for me?
Outgoing: -1

Incoming: Can you look up the reported call for COc1cc(CNC(=O)/C=C/C=C/c2ccc3c(c2)OCO3)ccc1OCc1cn(-c2ccc(Cl)c(Cl)c2)nn1 for me?
Outgoing: -1

Incoming: // outcome(item) with item = Cn1cc(-c2csc(-c3c[nH]c4ncccc34)n2)c2cc(Br)cnc21
Outgoing: -1

Incoming: What classification did N/C(=N\O)c1ncc(-c2ccc(C(F)(F)F)cc2)c(NC2CCCCCC2)n1 end up with in this test?
Outgoing: -1

---

test system: BT-549 breast; test: NCI tumour cell line growth inhibition, 48 h
RECORDED_METRIC: log10 of TGI (log10 of the value in µM)
Parameter value (number): base-10 log of TGI in µM.

Observe how each entry below is paired with its result.
COc1cc2cc(c1Cl)N(C)C(=O)CC(OC(=O)C(C)C)C1(C)OC1C(C)C1CC(O)(NC(=O)O1)C(OC)/C=C/C=C(C)C2 (stereo not given); 1.92
CC1=C(N2CC2)C(=O)C(CO)=C(N2CC2)C1=O; 0.29
CCCc1cc(=O)oc2c(C(=O)CC(C)C)c(O)c(CC=C(C)C)c(O)c12; 1.63
COc1cc2c(cc1OCCCCNC(=O)c1cc3ccccc3[nH]1)N=CC1CCCN1C2=O (stereo not given); 1.71
COc1cc(/C=C/C(=O)C(=Cc2ccc(F)c(F)c2)C(=O)/C=C/c2ccc(O)c(OC)c2)ccc1O; 0.85

Entry N#CC12COC3(CCCCC3C1(C#N)C#N)OC2=N (stereo not given) , log10 of TGI reported as 1.48

log10 of TGI reported for this compound Oc1c(C(O)(c2ccccc2)c2ccc3ccccc3c2O)ccc2ccccc12 : 1.63

The value of log10 of TGI measured for the compound COc1ccc(Nc2c3ccccc3nc3c2c2ccccc2n3C)cc1 turned out to be 1.64

Record summary for CCCCc1ccc(Nc2nc3c(ncn3C3OC(COC(C)=O)C(OC(C)=O)C3OC(C)=O)c(=O)[nH]2)cc1 (stereo not given) : reported log10 of TGI = 1.51

---

Recorded TGI by entry
tested on: LXFL 529 NSCLC; experiment: NCI tumour cell line growth inhibition, 48 h

Use the examples below as a reference point.
COc1ccc(/C=C2/C(=O)N(C(=O)c3ccccc3O)N=C2C)cc1OC; > 100 µM
CCOC(=O)C1=C(Nc2ccccc2)OC/C1=N\NC(=O)Cc1ccccc1; > 50 µM
CCCOc1ccc(/C(Cl)=C(\C=O)c2ccc(OC)c(OC)c2)cc1OCCC; 80.9 µM
CC(=O)OC1C=CC2CCN3C(=O)c4cc5c(cc4[C@H]1C23)OCO5 (stereo not given in full); > 100 µM
COc1cc2cc3c4c(cc(OC)c(OC)c4c2cc1OC)CCN3C(=O)CCCC(=O)O; > 100 µM

Sample C=C1C(=O)OC2CCCCC3OC3C12 (stereo not given) ; TGI observed: 20.2 µM

// CCOP(=O)(CCP(=O)(OCC)OCC)OCC.C[CH2][Sn]([Cl])([Cl])[CH2]C : TGI value = 22.8 µM

Memo: COc1c(OC(C)=O)cc2c(OC(C)=O)c1CC(C)CC(OC)C(O)C(C)/C=C(\C)C(OC(N)=O)C(OC)/C=C\C=C(/C)C(=O)N2 (stereo not given) , reported TGI: > 100 µM

Value of measured TGI for the entry O=C(CC(=O)N1N=C(n2ccc3ccccc32)CC1c1ccccc1)Nc1cccc(Cl)c1 (stereo not given) : > 100 µM

Looking up CCSC1(SCC)CCN(C=NC(C)(C)C)C1 , I see its TGI listed as > 100 µM

---

Overview of recorded log10 TGI for various compounds
system: OVCAR-5 ovarian; assay: NCI tumour cell line growth inhibition, 48 h
# values: log10(TGI), units µM

O=C(N=Nc1ccc([N+](=O)[O-])cc1)NNc1ccc([N+](=O)[O-])cc1; 1.68
Cc1cccc2c1Oc1cc(Cl)ccc1C2NC(=O)CCN1CCCCC1 (configuration not stated); 1.50
COc1cc(/C=C/C(=O)C(=Cc2ccc(F)c(F)c2)C(=O)/C=C/c2ccc(O)c(OC)c2)ccc1O; 1.16
Cc1csc2c(P(=O)(OC(C)C)OC(C)C)c(-c3ccccc3)cn12; 1.46
CCN1CCN(CCOc2ccc(CNc3ccc4nc(CCC5CCCCC5)[nH]c4c3)cc2)CC1; 0.86
C=C1C(=O)OC2/C=C(\C)CC/C=C(/C)CC(OC(=O)/C(=C/CO)CO)C12 (configuration not stated); 1.57
C=C1CC[C@@H]2C(C)(C)[C@@H](O)CC[C@@]2(C)[C@@H]1COc1ccc2ccc(=O)oc2c1; 1.60
COc1cc(CNC(=O)/C=C/C=C/c2ccc3c(c2)OCO3)ccc1OCc1cn(-c2ccc(Cl)c(Cl)c2)nn1; 0.60

Recorded result, COc1cc(Cn2c3c(c4c(CN(C)C)c(O)ccc42)C(=O)c2ccccc2C3=O)cc(OC)c1 , log10 TGI: 1.63

The compound listed as C=CCn1c2ccccc2c2c(C)c3cnccc3c(C)c21 has a reported log10 TGI of 1.84

Per the record, CC/C(=N\Nc1nc2ccccc2n1C)c1ccccn1 has log10 TGI of 1.19

For reference, reported log10 TGI for C=C1C(=O)OC2CCCCC3OC3C12 (configuration not stated) stands at 1.51

Noted for CCN1CCC[C@H]1c1cc(O)c2c(c1OC)C[C@H]1C[C@H]3[C@H](N)C(=O)C(C(N)=O)=C(O)[C@@]3(O)C(=O)C1=C2O : its log10 TGI reads 0.61

// recorded log10 TGI for O=C(CCCn1c2c(sc3ncccc32)c(=O)n2nnc(-c3ccccc3)c12)NCCc1cnc[nH]1 : 1.51

The recorded log10 TGI for COc1ccc(-c2cc(-c3ccccc3)n(C3OC(COC(C)=O)C(OC(C)=O)C(OC(C)=O)C3OC(C)=O)c(=S)c2C#N)cc1 (configuration not stated) is 1.47

---

system: OVCAR-3 ovarian; experiment: NCI tumour cell line growth inhibition, 48 h
RECORDED_METRIC: TGI

Some entries whose results are on file:
COCCO; > 100 µM
C/C(Cl)=N\OC(=O)Nc1ccc([N+](=O)[O-])cc1; 6.1 µM

Entry COc1cc(/C=C/C(=O)C(=Cc2ccc(F)c(F)c2)C(=O)/C=C/c2ccc(O)c(OC)c2)ccc1O — recorded TGI = 4.78 µM

Just so you know, measured TGI for C=CCCCCOC1C=CC(OC(C)=O)C(COC(C)=O)O1 (stereo unspecified) came out at > 100 µM

// recorded TGI for CCN(CC)CC(O)c1ccc2ccc3ccccc3c2c1 (stereo unspecified) : 29.1 µM

get_value(item= Cn1cc(-c2csc(-c3c[nH]c4ncccc34)n2)c2cc(Br)cnc21 , readout=TGI) returns > 100 µM

// CCCCCCCCCCCCCCCCOC(=O)C(C(=O)OCCCCCCCCCCCCCCCC)[N+](C)(C)CCOC(C)=O : TGI value = 32.6 µM

The value of TGI measured for the molecule Cc1ccc2nc3c(C(=O)NCCN(C)C)cccc3cc2c1 turned out to be 5.83 µM

TGI recorded for this molecule, Clc1cc2nc(C3CCCO3)[nH]c2cc1Cl (stereo unspecified) , is > 100 µM

The molecule COC1=C(OC)C(=O)C(/C=C(\C)C(=O)O)=C(C)C1=O showed TGI equal to > 100 µM

Lab note: measured TGI of COc1ccc(/C=C2\N=C(c3ccccc3)OC2=O)c(OCc2ccccc2)c1 was 48.4 µM

Origin of values: PubChem BioAssay (NCI)
